tested on: Caco-2 cells; experiment: Transport (permeability, Papp) across Caco-2 cell monolayers; assay type: in vitro ADME, human; settings: 50 µM, parent compound
Property: Permeability value BL to AP compared with AP to BL

>>> result("Oc1ccc(/C=C/c2cc(O)cc(O)c2)cc1 [Resveratrol]")
"lower"

###

test: Pharmacokinetics in rat plasma after oral administration of polyphenols; settings: male, Sprague-Dawley, rat, plasma, po, 50 µmol•kg^–1
Property: Cmax (ng/mL)

>>> result("O=c1cc(-c2ccc(O)cc2)oc2cc(O)cc(O)c12")
42
>>> result("Cc1cc(O)c2c(c1)C(=O)c1cccc(O)c1C2=O")
326
>>> result("Oc1ccc(/C=C/c2cc(O)cc(O)c2)cc1")
157

###

tested on: Caco-2 cells; assay: Cellular uptake / intracellular accumulation in Caco-2 cells, with or without transporter inhibitors; format: in vitro ADME, human; details: 100 µM verapamil (P-glycoprotein inhibitor)
Property: Intracellular accumulation after pre-treatment with verapamil

>>> result("Cc1cc(O)c2c(c1)C(=O)c1cccc(O)c1C2=O [Chrysophanol]")
"increased the uptake"
>>> result("Oc1ccc(/C=C/c2cc(O)cc(O)c2)cc1 [Resveratrol]")
"clearly increased"
>>> result("Cc1cc(O)c2c(c1)C(=O)c1cc(O)cc(O)c1C2=O [Emodin]")
"increased the uptake"
>>> result("O=c1cc(-c2ccc(O)cc2)oc2cc(O)cc(O)c12 [Apigenin]")
"clearly increased"

###

assay: Pharmacokinetics in rat plasma after oral administration of polyphenols; conditions: rat plasma, oral 50 µmol•kg^–1, mean ± SD, n = 6
Property: K

>>> result("O=c1cc(-c2ccc(O)cc2)oc2cc(O)cc(O)c12 [Apigenin]")
"0.16±0.02 ^1 h^−1"
>>> result("Cc1cc(O)c2c(c1)C(=O)c1cc(O)cc(O)c1C2=O [Emodin]")
"0.23 ± 0.04 h⁻¹"
>>> result("Cc1cc(O)c2c(c1)C(=O)c1cccc(O)c1C2=O [Chrysophanol]")
"0.08 ± 0.01 h⁻¹"
>>> result("Oc1ccc(/C=C/c2cc(O)cc(O)c2)cc1 [Resveratrol]")
"0.38 ± 0.03 h⁻¹"

###

system: Caco-2 cells; assay: Cellular uptake / intracellular accumulation in Caco-2 cells, with or without transporter inhibitors; assay type: in vitro ADME, human; conditions: 50 µM phloridzin (SGLT1 inhibitor)
Property: Intracellular accumulation / uptake in the presence of phloridzin

>>> result("Oc1ccc(/C=C/c2cc(O)cc(O)c2)cc1")
"no changes were observed"
>>> result("O=c1cc(-c2ccc(O)cc2)oc2cc(O)cc(O)c12")
"no changes were observed"

###

Quick reference: Time of maximum intracellular accumulation (given as Cmax) of the listed items.
test system: Caco-2 cells; experiment: Cellular uptake / intracellular accumulation in Caco-2 cells, with or without transporter inhibitors; type: in vitro ADME, human; conditions: 50 µM, parent compound in Caco-2 cells
Property: Time of maximum intracellular accumulation (given as Cmax) (min)

>>> result("O=c1cc(-c2ccc(O)cc2)oc2cc(O)cc(O)c12 [Apigenin]")
10
>>> result("Cc1cc(O)c2c(c1)C(=O)c1cc(O)cc(O)c1C2=O [Emodin]")
10
>>> result("Cc1cc(O)c2c(c1)C(=O)c1cccc(O)c1C2=O [Chrysophanol]")
10

###

test: Transport (permeability, Papp) across Caco-2 cell monolayers; type: in vitro ADME, human; details: human, Caco-2, basolateral to apical, mean ± SD, n = 6, read-out: Papp BL to AP
Property: Papp B→A at 50 µM (×10⁻⁶ cm/s)

>>> result("Cc1cc(O)c2c(c1)C(=O)c1cccc(O)c1C2=O")
27.4
>>> result("Oc1ccc(/C=C/c2cc(O)cc(O)c2)cc1")
7.86
>>> result("Cc1cc(O)c2c(c1)C(=O)c1cc(O)cc(O)c1C2=O")
24.4
>>> result("O=c1cc(-c2ccc(O)cc2)oc2cc(O)cc(O)c12")
12.9
